Literature-derived log10 of IC50 for HIV protease (Human immunodeficiency virus type 1 group M subtype B, UniProt P04585) follows.
quantity: log10 of IC50 (log10 of the value in nM)

compound	reported-value
CC(C)CN(C[C@@H](O)[C@H](Cc1ccccc1)NC(=O)[C@H](C)CS(=O)(=O)CCC(=O)N1CCN(C(=O)OC(C)(C)C)CC1)S(=O)(=O)c1ccc2c(c1)OCO2	0.60
O=C1N(Cc2ccc(CO)cc2)[C@@H](Cc2ccccc2)P(=O)(O)[C@H](Cc2ccccc2)N1Cc1ccc(CO)cc1 (relative stereo)	2.38
O=C1N(Cc2ccc(CBr)cc2)[C@@H](Cc2ccccc2)P(=O)(O)[C@@H](Cc2ccccc2)N1Cc1ccc(CBr)cc1	4.26
CC(C)(C)OC(=O)N1CC2CCCCC2CN1CC(O)[C@H](Cc1ccccc1)NC(=O)[C@H](CC(N)=O)NC(=O)c1ccc2ccccc2n1 (stereo partly drawn)	0.73
CN[C@@H](C)C(=O)N[C@H](C(=O)N[C@@H](Cc1ccccc1)[C@H](O)CN(CCC(C)C)C(=O)NC(C)(C)C)C(C)(C)C	0.90
CC(C)CCN(C[C@@H](O)[C@H](Cc1ccccc1)NC(=O)[C@@H](NC(=O)[C@H](C)N(C)C(=O)OCc1ccccc1)C(C)(C)C)C(=O)NC(C)(C)C	1.15

---

Literature-derived log10(IC50) for HIV protease (Human immunodeficiency virus type 1 group M subtype B, UniProt P04585) follows.
quantity: log10(IC50) (log10 of the value in nM)

compound	log10(IC50)
CC(C)CN(C[C@@H](O)[C@H](Cc1ccccc1)NC(=O)[C@H](C)CSCC(=O)N1CCN(C(=O)OC(C)(C)C)CC1)S(=O)(=O)c1ccc2c(c1)OCO2	1.08
O=C1N(Cc2ccccc2)[C@@H](Cc2ccccc2)P(=O)(O)[C@@H](Cc2ccccc2)N1Cc1ccccc1	4.70
CCOC(=O)CCCSC[C@@H](C)C(=O)N[C@@H](Cc1ccccc1)[C@H](O)CN(CC(C)C)S(=O)(=O)c1ccc2c(c1)OCO2	1.34
CC(C)CN(C[C@@H](O)[C@H](Cc1ccccc1)NC(=O)[C@H](C)CS(=O)(=O)CC(=O)N1CCNCC1)S(=O)(=O)c1ccc2c(c1)OCO2	1.43
CC[C@H](C)[C@H](NC(=O)CN(C)C)C(=O)N[C@@H](Cc1ccccc1)[C@H](O)CN(CCC(C)C)C(=O)NC(C)(C)C	1.15
O=C(NCc1ccc2c(c1)[C@@H](O)[C@H](O)c1cc(CNC(=O)OCc3ccccc3)ccc1C2=O)OCc1ccccc1 (relative stereo)	0.70
CC(C)CN(C[C@@H](O)[C@H](Cc1ccccc1)NC(=O)[C@H](C)CSCC(=O)NCCN1CCCC1)S(=O)(=O)c1ccc2c(c1)OCO2	1.88
CC(C)CN(C[C@@H](O)[C@H](Cc1ccccc1)NC(=O)[C@H](C)CSCC(=O)N1CCOCC1)S(=O)(=O)c1ccc2c(c1)OCO2	1.80
O=C1N(Cc2ccc3ccccc3c2)[C@@H](Cc2ccccc2)P(=O)(O)[C@H](Cc2ccccc2)N1Cc1ccc2ccccc2c1 (relative stereo)	2.51
CC(C)CCN(C[C@@H](O)[C@H](Cc1ccccc1)NC(=O)[C@@H](NC(=O)[C@@H]1CCCN1)C(C)(C)C)C(=O)NC(C)(C)C	0.95
